system-tested: hGluR1 flip (Homo sapiens, UniProt P42261)
Construct: expressed in transfected cells; host or cells: CHO-K1
Sequence (P42261 19-906 isoform P42261-2 limits assumed): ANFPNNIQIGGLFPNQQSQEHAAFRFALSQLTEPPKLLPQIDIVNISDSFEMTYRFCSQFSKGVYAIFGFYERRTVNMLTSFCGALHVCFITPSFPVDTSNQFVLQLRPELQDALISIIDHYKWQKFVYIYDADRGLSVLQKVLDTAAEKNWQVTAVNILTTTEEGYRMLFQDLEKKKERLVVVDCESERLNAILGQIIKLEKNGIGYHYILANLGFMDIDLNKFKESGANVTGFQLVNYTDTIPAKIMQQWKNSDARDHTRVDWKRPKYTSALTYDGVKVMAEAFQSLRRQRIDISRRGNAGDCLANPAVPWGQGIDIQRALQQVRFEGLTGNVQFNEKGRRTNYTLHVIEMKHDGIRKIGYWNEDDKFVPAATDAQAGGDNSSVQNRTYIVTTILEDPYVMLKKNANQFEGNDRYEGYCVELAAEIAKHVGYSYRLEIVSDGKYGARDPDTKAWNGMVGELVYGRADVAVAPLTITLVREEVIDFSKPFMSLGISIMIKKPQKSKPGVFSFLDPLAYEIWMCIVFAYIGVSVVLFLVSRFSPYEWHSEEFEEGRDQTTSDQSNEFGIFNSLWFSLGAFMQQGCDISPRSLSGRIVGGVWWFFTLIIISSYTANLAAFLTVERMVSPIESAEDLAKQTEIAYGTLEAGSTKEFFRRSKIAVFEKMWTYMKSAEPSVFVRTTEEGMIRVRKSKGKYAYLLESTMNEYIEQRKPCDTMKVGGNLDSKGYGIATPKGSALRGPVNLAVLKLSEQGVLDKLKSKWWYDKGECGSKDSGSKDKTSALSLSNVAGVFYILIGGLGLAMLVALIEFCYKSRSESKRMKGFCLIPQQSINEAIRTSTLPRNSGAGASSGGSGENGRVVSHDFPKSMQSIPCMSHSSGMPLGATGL
Sequence (Q9Y698 whole entry partner): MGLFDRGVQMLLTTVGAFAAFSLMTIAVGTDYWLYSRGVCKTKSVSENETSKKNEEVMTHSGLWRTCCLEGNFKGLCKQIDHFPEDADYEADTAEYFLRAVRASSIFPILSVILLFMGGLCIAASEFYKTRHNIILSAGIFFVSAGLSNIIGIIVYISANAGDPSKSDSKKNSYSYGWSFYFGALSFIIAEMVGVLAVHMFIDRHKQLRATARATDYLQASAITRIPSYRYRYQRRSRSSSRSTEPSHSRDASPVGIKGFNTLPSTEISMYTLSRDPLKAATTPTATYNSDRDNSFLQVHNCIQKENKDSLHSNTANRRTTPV
experiment-summary: AMPA receptor function-enhancing activity using calcium influx as index
Format: cell-based
protocol-conditions: test compound 30 μM with 3 mM glutamic acid; CHO-K1/GluR1 flip/stargazin-expressing cells; 100% = 3 mM glutamic acid + 300 μM cyclothiazide, 0% = 3 mM glutamic acid alone
Recorded activation at 30 µM, one value per entry.

{"compound": "CC1(O)CCN(C(=O)c2ccc(-c3cccn4c(=O)cc(C(F)(F)F)nc34)cc2)C1 (stereo not shown)", "activation at 30 µM": "79.3%"}
{"compound": "CN(CC1(C#N)CC1)C(=O)c1ccc(-c2cccn3c(=O)c(Br)c(C(F)(F)F)nc23)cc1", "activation at 30 µM": "84%"}
{"compound": "O=C(c1ccc(-c2cccn3c(=O)c(Br)c(C(F)(F)F)nc23)cc1)N1CCc2cccnc21", "activation at 30 µM": "74.6%"}
{"compound": "Cc1c(C(F)(F)F)nc2c(-c3ccc(C(=O)N4CCOC(C(F)F)C4)cc3)cccn2c1=O (stereo not shown)", "activation at 30 µM": "83.5%"}
{"compound": "Cc1c(C(F)(F)F)nc2c(-c3ccc(C(=O)N4CCC(C#N)C4)cc3)cccn2c1=O (stereo not shown)", "activation at 30 µM": "84.4%"}
{"compound": "O=C(c1ccc(-c2cccn3c(=O)c(Cl)c(C(F)(F)F)nc23)cc1F)N1CCCOCC1", "activation at 30 µM": "95.1%"}
{"compound": "O=C(NCC(F)F)c1ccc(-c2cccn3c(=O)cc(C(F)(F)F)nc23)cc1F", "activation at 30 µM": "83.6%"}
{"compound": "O=C(N[C@H]1CCCOC1)c1ccc(-c2cccn3c(=O)c(Cl)c(C(F)(F)F)nc23)cc1", "activation at 30 µM": "106%"}
{"compound": "Cc1c(C(F)(F)F)nc2c(-c3ccc(C(=O)N[C@H]4CCOC4)c(F)c3)cccn2c1=O", "activation at 30 µM": "103%"}
{"compound": "CCN(CCC#N)C(=O)c1ccc(-c2cccn3c(=O)c(Br)c(C(F)(F)F)nc23)cc1", "activation at 30 µM": "91%"}
{"compound": "O=C(c1ccc(-c2cccn3c(=O)c(Br)c(C(F)(F)F)nc23)cc1)N1CCOC(F)(F)C1", "activation at 30 µM": "79.4%"}
{"compound": "O=C(c1ccc(-c2cccn3c(=O)c(Br)c(C(F)(F)F)nc23)cc1)N1CCOCC(F)(F)C1", "activation at 30 µM": "71%"}
{"compound": "O=C(c1ccc(-c2cccn3c(=O)c(Br)c(C(F)(F)F)nc23)cc1F)N1CC(F)(F)C1", "activation at 30 µM": "96%"}
